- TARGET OR TEST SYSTEM: human Cereblon WT GST-tagged protein (Homo sapiens, UniProt Q96SW2)
- Construct: purchased CISBIO 64BDCRBNPEH
- Sequence (Q96SW2 whole entry): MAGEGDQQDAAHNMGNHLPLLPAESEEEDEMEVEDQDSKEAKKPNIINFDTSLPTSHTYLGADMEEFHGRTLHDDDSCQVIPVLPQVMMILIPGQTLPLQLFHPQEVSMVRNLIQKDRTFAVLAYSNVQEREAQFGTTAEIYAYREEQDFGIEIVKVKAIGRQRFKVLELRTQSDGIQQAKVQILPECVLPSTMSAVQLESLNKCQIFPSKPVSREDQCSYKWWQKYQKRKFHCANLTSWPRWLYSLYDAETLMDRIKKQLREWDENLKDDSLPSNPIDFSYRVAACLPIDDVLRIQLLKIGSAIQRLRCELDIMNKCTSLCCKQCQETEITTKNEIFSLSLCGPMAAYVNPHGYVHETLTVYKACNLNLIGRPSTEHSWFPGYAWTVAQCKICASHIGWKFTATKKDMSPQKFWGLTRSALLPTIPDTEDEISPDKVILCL
- ASSAY: CRBN-binding affinity by HTRF (CEREBLON BINDING kit)
- CONDITION LABEL: HTRF inhibitory activity, CEREBLON BINDING kit; read-out: HTRF IC50
Task for the reader: assign each of the following compounds its reported IC50.

O=C1CCC(N2Cc3cc(CN4CCC(n5cnc6cc(F)ccc65)CC4)ccc3C2=O)C(=O)N1 (centres unmarked)    < 500 nM
O=C1CCC(N2Cc3cc(CN4CCN(c5c(Cl)cncc5Cl)CC4)ccc3C2=O)C(=O)N1 (centres unmarked)    < 500 nM
O=C1CCC(N2Cc3cc(CN4CCN(c5ccc(Cl)cn5)CC4)ccc3C2=O)C(=O)N1 (centres unmarked)    500 to 1000 nM
O=C1CCC(N2C(=O)c3ccc(CN4CC=C(c5ncnc6sccc56)CC4)cc3C2=O)C(=O)N1 (centres unmarked)    500 to 1000 nM
O=C1CCC(N2C(=O)c3ccc(CN4CCC(c5c[nH]c6ncccc56)CC4)cc3C2=O)C(=O)N1 (centres unmarked)    1500 to 1900 nM
O=C1CCC(N2Cc3cc(CN4CC=C(c5ccoc5)CC4)ccc3C2=O)C(=O)N1 (centres unmarked)    < 500 nM
O=C1CCC(N2Cc3cc(CN4CCN(c5cccc(Cl)c5Cl)CC4)cc(F)c3C2=O)C(=O)N1 (centres unmarked)    500 to 1000 nM

Consider now this further compound.
Record Cc1cc(C2=CCN(Cc3ccc4c(c3)CN(C3CCC(=O)NC3=O)C4=O)CC2)cs1 (centres unmarked) ; system human Cereblon WT GST-tagged protein (Homo sapiens, UniProt Q96SW2); IC50 = 500 to 1000 nM

----------
Task for the reader: assign each of the following compounds its reported IC50.
- TARGET OR TEST SYSTEM: human Cereblon WT GST-tagged protein (Homo sapiens, UniProt Q96SW2)
- Construct: purchased CISBIO 64BDCRBNPEH
- ASSAY: CRBN-binding affinity by HTRF (CEREBLON BINDING kit)
- CONDITION LABEL: HTRF inhibitory activity, CEREBLON BINDING kit; read-out: HTRF IC50

O=C1CCC(N2Cc3cc(CN4CCC(c5noc6cc(F)ccc56)CC4)c(F)cc3C2=O)C(=O)N1 (stereo not shown)    1500 to 1900 nM
O=C1CCC(N2Cc3cc(CN4CCN(c5cc(Cl)ccn5)CC4)ccc3C2=O)C(=O)N1 (stereo not shown)    500 to 1000 nM
O=C1CCC(N2Cc3cc(CN4CCC(c5ncnc6sc(-c7ccccc7)cc56)CC4)ccc3C2=O)C(=O)N1 (stereo not shown)    < 500 nM
O=C1CCC(N2Cc3c(ccc(CN4CCC(c5noc6cc(F)ccc56)CC4)c3F)C2=O)C(=O)N1 (stereo not shown)    1000 to 1500 nM
O=C1CCC(N2Cc3cc(CN4C[C@@H]5C[C@H]4CN5c4cccc(Cl)c4Cl)ccc3C2=O)C(=O)N1 (stereo partly shown)    < 500 nM

Fill in IC50 for each of the 8 compounds listed.
1. O=C1CCC(N2Cc3cc(CN4CCN(c5ncc(C(F)(F)F)cc5Cl)CC4)ccc3C2=O)C(=O)N1 (stereo not shown)
2. O=C1CCC(N2Cc3cc(CN4CCN(c5ccc(Cl)cc5)CC4)ccc3C2=O)C(=O)N1 (stereo not shown)
3. O=C1CCC(N2Cc3cc(CN4CCN(c5n[nH]c6cc(F)ccc56)CC4)ccc3C2=O)C(=O)N1 (stereo not shown)
4. O=C1CCC(N2C(=O)c3ccc(CN4CCN(c5ccc(Cl)nn5)CC4)cc3C2=O)C(=O)N1 (stereo not shown)
5. O=C1CCC(N2Cc3cc(CN4CCN(c5c(F)cncc5Cl)CC4)ccc3C2=O)C(=O)N1 (stereo not shown)
6. O=C1CCC(N2Cc3cc(CN4CCN(c5ccnc(Cl)c5Cl)CC4)ccc3C2=O)C(=O)N1 (stereo not shown)
7. O=C1CCC(N2C(=O)c3ccc(CN4CC=C(c5ncnc6sc(-c7ccccc7)cc56)CC4)cc3C2=O)C(=O)N1 (stereo not shown)
8. O=C1CCC(N2Cc3cc(CN4CCC(C5CCOc6cc(F)ccc65)CC4)ccc3C2=O)C(=O)N1 (stereo not shown)

Key:
1. 1500 to 1900 nM
2. 500 to 1000 nM
3. 500 to 1000 nM
4. 1500 to 1900 nM
5. 500 to 1000 nM
6. < 500 nM
7. 500 to 1000 nM
8. < 500 nM

----------
Task for the reader: assign each of the following compounds its reported IC50.
- TARGET OR TEST SYSTEM: human Cereblon WT GST-tagged protein (Homo sapiens)
- Construct: purchased CISBIO 64BDCRBNPEH
- ASSAY: CRBN-binding affinity by HTRF (CEREBLON BINDING kit)
- CONDITION LABEL: HTRF inhibitory activity, CEREBLON BINDING kit; read-out: HTRF IC50

Examples with their reported IC50 follow.
O=C1CCC(N2Cc3cc(CN4CCN(c5nc6c(c(N7CCOCC7)n5)SCC6)CC4)ccc3C2=O)C(=O)N1 (centres unmarked) [GT-04694]    < 500 nM
O=C1CCC(N2Cc3cc(CN4CC(n5cnc6cc(F)ccc65)C4)ccc3C2=O)C(=O)N1 (centres unmarked) [GT-04716]    500 to 1000 nM
O=C1CCC(N2Cc3cc(CN4CCN(c5noc6ccncc56)CC4)ccc3C2=O)C(=O)N1 (centres unmarked) [GT-04904]    < 500 nM
Cc1ccc(Cl)cc1N1CCN(Cc2ccc3c(c2)CN(C2CCC(=O)NC2=O)C3=O)CC1 (centres unmarked) [GT-04440]    500 to 1000 nM

Sample O=C1CCC(N2Cc3cc(CN4CCC(c5ccsc5)CC4)ccc3C2=O)C(=O)N1 (centres unmarked) [GT-04586] ; IC50 observed: 500 to 1000 nM

----------
Task for the reader: assign each of the following compounds its reported pIC50.
- TARGET OR TEST SYSTEM: human Cereblon WT GST-tagged protein (Homo sapiens, UniProt Q96SW2)
- Construct: purchased CISBIO 64BDCRBNPEH
- ASSAY: CRBN-binding affinity by HTRF (CEREBLON BINDING kit)
- CONDITION LABEL: HTRF inhibitory activity, CEREBLON BINDING kit; read-out: HTRF IC50
pIC50: −log10 of the molar value.

O=C1CCC(N2Cc3cc(CN4CCC(c5noc6ccccc56)CC4)ccc3C2=O)C(=O)N1 (centres unmarked) [GT-04907]    > 6.30

Fill in pIC50 for each of the 4 compounds listed.
1. O=C1CCC(N2Cc3cc(CN4CC=C(c5ncnc6scc(-c7ccccc7)c56)CC4)ccc3C2=O)C(=O)N1 (centres unmarked) [GT-04908]
2. O=C1CCC(N2Cc3cc(CN4CCN(c5ccc(F)cc5F)CC4)ccc3C2=O)C(=O)N1 (centres unmarked) [GT-04438]
3. Cc1cccc(N2CCN(Cc3ccc4c(c3)CN(C3CCC(=O)NC3=O)C4=O)CC2)c1 (centres unmarked) [GT-04462]
4. O=C1CCC(N2Cc3cc(CN4CCN(c5nc(Cl)nc6ccsc56)CC4)ccc3C2=O)C(=O)N1 (centres unmarked) [GT-04682]

Key:
> 6.30
6.00 to 6.30
6.00 to 6.30
6.00 to 6.30

Fill in pIC50 for each of the 6 compounds listed.
1. O=C1CCC(N2Cc3cc(CN4CCN(c5ccccn5)CC4)ccc3C2=O)C(=O)N1 (centres unmarked) [GT-04449]
2. O=C1CCC(N2C(=O)c3ccc(CN4CCC(c5ncnc6sc7c(c56)CCCC7)CC4)cc3C2=O)C(=O)N1 (centres unmarked) [GT-06649]
3. O=C1CCC(N2C(=O)c3ccc(CN4CC=C(c5nccc(Cl)c5Cl)CC4)cc3C2=O)C(=O)N1 (centres unmarked) [GT-06608]
4. O=C1CCC(N2Cc3cc(CN4CCN(c5c(Cl)cccc5Cl)CC4)ccc3C2=O)C(=O)N1 (centres unmarked) [GT-04613]
5. O=C1CCC(N2C(=O)c3ccc(CN4CCC(c5ncnc6sc7c(c56)CCC7)CC4)cc3C2=O)C(=O)N1 (centres unmarked) [GT-06650]
6. O=C1CCC(N2Cc3cc(CN4CCN(c5nsc6cc(F)ccc56)CC4)ccc3C2=O)C(=O)N1 (centres unmarked) [GT-05332]

Key:
1. 6.00 to 6.30
2. 5.72 to 5.82
3. 5.82 to 6.00
4. 5.82 to 6.00
5. 5.72 to 5.82
6. > 6.30

Fill in pIC50 for each of the 3 compounds listed.
1. Cc1cc(C2CCN(Cc3ccc4c(c3)CN(C3CCC(=O)NC3=O)C4=O)CC2)cs1 (centres unmarked) [GT-04588]
2. Cc1ccsc1N1CCN(Cc2ccc3c(c2)CN(C2CCC(=O)NC2=O)C3=O)CC1 (centres unmarked) [GT-04582]
3. Cc1nc(C2CCN(Cc3ccc4c(c3)CN(C3CCC(=O)NC3=O)C4=O)CC2)c2ccsc2n1 (centres unmarked) [GT-04726]

Key:
5.82 to 6.00
> 6.30
6.00 to 6.30
